B1: HDV Ribozyme (parent)
chain: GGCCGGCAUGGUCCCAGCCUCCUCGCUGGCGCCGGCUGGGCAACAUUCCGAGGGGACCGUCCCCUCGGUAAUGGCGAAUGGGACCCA

Variants of: B1
Test: self-cleavage, relative activity (ratio to wild type); higher = more cleavage; co-transcriptional
The threshold is inclusive: self-cleavage of exactly 0.3 counts as T; values below receive F.

Worked cases, answers included:
{"mutation key": "G29U C63A", "classification": "F"}
{"mutation key": "U20G G67U", "classification": "T"}
{"mutation key": "C21G G29C", "classification": "F"}
{"mutation key": "G25C A70C", "classification": "F"}
{"mutation key": "G1C U27G", "classification": "F"}

Request: hey, is self-cleavage for this one >= 0.3? U27C C57U
Result: T

Request: And for C26G U65A ?
Result: T

Request: And for C32U C36G ?
Result: F

Request: And for G1U U12A ?
Result: T

Request: And for `A51U` ?
Result: T

Request: And for C13A U37G ?
Result: F

Request: And for C15A U72A ?
Result: F

Request: And for G2C U9C ?
Result: F

Request: And for C13G U60C ?
Result: F

Request: And for C41G A43G ?
Result: F

Request: And for G5U C13G ?
Result: F

Request: And for C26A C84A ?
Result: T

Request: And for G2A C58G ?
Result: F

Request: And for C15U G52A ?
Result: T

Request: And for A43U G50C ?
Result: T
